reported conditions: 333.15 K; 101.33 kPa; Liquid; Pulse-echo method
Numbers after ± are expanded uncertainties.

molecule | speed of sound
CCCCCCn1cc[n+](C)c1.F[P-](F)(F)(F)(F)F [1-hexyl-3-methylimidazolium hexafluorophosphate] | 1340.8 ± 3.1 m/s
CC(C)C[P+](C)(CC(C)C)CC(C)C.Cc1ccc(S(=O)(=O)[O-])cc1 [triisobutylmethylphosphonium p-toluenesulfonate] | 1508.3 ± 5.1 m/s
CCn1cc[n+](C)c1.COS(=O)(=O)[O-] [1-ethyl-3-methylimidazolium methylsulfate] | 1681.3 ± 2.2 m/s
CCCCn1cc[n+](C)c1.O=S(=O)([O-])O [1-butyl-3-methylimidazolium hydrogen sulfate] | 1601.5 ± 5.1 m/s
CCCC[n+]1ccc(C)cc1.F[B-](F)(F)F [1-butyl-4-methylpyridinium tetrafluoroborate] | 1517.9 ± 3.1 m/s
CCCCCCCC[n+]1ccn(C)c1.F[P-](F)(F)(F)(F)F [1-octyl-3-methylimidazolium hexafluorophosphate] | 1315.5 ± 5.1 m/s
CCCCCCCC[n+]1ccn(C)c1.[Cl-] [1-methyl-3-octylimidazolium chloride] | 1543 ± 3.1 m/s
COS(=O)(=O)[O-].Cn1cc[n+](C)c1 [1,3-dimethylimidazolium methylsulfate] | 1728.8 ± 3.1 m/s
CCCCn1cc[n+](C)c1.F[P-](F)(F)(F)(F)F [1-butyl-3-methylimidazolium hexafluorophosphate] | 1363.8 ± 3.1 m/s

---

reported conditions: 308.15 K; 101.33 kPa; Liquid
# label = Satisfied if viscosity >= 200 mPa·s else Not satisfied

compound | label
CCCCn1cc[n+](C)c1.O=S(=O)([O-])O [1-butyl-3-methylimidazolium hydrogen sulfate] | Satisfied
CCn1cc[n+](C)c1.COS(=O)(=O)[O-] [1-ethyl-3-methylimidazolium methylsulfate] | Not satisfied
CCCC[n+]1ccc(C)cc1.F[B-](F)(F)F [1-butyl-4-methylpyridinium tetrafluoroborate] | Not satisfied
CCCCCCCC[n+]1ccn(C)c1.F[P-](F)(F)(F)(F)F [1-octyl-3-methylimidazolium hexafluorophosphate] | Satisfied
COS(=O)(=O)[O-].Cn1cc[n+](C)c1 [1,3-dimethylimidazolium methylsulfate] | Not satisfied
CCCCCCn1cc[n+](C)c1.F[P-](F)(F)(F)(F)F [1-hexyl-3-methylimidazolium hexafluorophosphate] | Not satisfied
CC(C)C[P+](C)(CC(C)C)CC(C)C.Cc1ccc(S(=O)(=O)[O-])cc1 [triisobutylmethylphosphonium p-toluenesulfonate] | Satisfied
CCCCn1cc[n+](C)c1.F[P-](F)(F)(F)(F)F [1-butyl-3-methylimidazolium hexafluorophosphate] | Not satisfied
CCCCCCCC[n+]1ccn(C)c1.[Cl-] [1-methyl-3-octylimidazolium chloride] | Satisfied

---

reported conditions: 328.15 K; 101.33 kPa; Liquid
quantity measured: log10 viscosity (log10 of the value in mPa·s)

compound | log10 viscosity
CCn1cc[n+](C)c1.COS(=O)(=O)[O-] [1-ethyl-3-methylimidazolium methylsulfate] | 1.48
CCCCCCCC[n+]1ccn(C)c1.F[P-](F)(F)(F)(F)F [1-octyl-3-methylimidazolium hexafluorophosphate] | 2.03
COS(=O)(=O)[O-].Cn1cc[n+](C)c1 [1,3-dimethylimidazolium methylsulfate] | 1.37
CCCCCCCC[n+]1ccn(C)c1.[Cl-] [1-methyl-3-octylimidazolium chloride] | 2.96
CCCCn1cc[n+](C)c1.F[P-](F)(F)(F)(F)F [1-butyl-3-methylimidazolium hexafluorophosphate] | 1.78
CCCCn1cc[n+](C)c1.O=S(=O)([O-])O [1-butyl-3-methylimidazolium hydrogen sulfate] | 1.95
CC(C)C[P+](C)(CC(C)C)CC(C)C.Cc1ccc(S(=O)(=O)[O-])cc1 [triisobutylmethylphosphonium p-toluenesulfonate] | 2.34
CCCCCCn1cc[n+](C)c1.F[P-](F)(F)(F)(F)F [1-hexyl-3-methylimidazolium hexafluorophosphate] | 1.84
CCCC[n+]1ccc(C)cc1.F[B-](F)(F)F [1-butyl-4-methylpyridinium tetrafluoroborate] | 1.61

---

reported conditions: 328.15 K, Ring tensiometer
Each record here notes measured surface tension liquid-gas.
quantity measured: surface tension liquid-gas (mN/m)

compound | quantity measured | assay result
CCCCCCCC[n+]1ccn(C)c1.[Cl-] [1-methyl-3-octylimidazolium chloride] | surface tension liquid-gas | 30.7
CC(C)C[P+](C)(CC(C)C)CC(C)C.Cc1ccc(S(=O)(=O)[O-])cc1 [triisobutylmethylphosphonium p-toluenesulfonate] | surface tension liquid-gas | 32.8
CCCCn1cc[n+](C)c1.F[P-](F)(F)(F)(F)F [1-butyl-3-methylimidazolium hexafluorophosphate] | surface tension liquid-gas | 40.8
CCCC[n+]1ccc(C)cc1.F[B-](F)(F)F [1-butyl-4-methylpyridinium tetrafluoroborate] | surface tension liquid-gas | 43.5
CCn1cc[n+](C)c1.COS(=O)(=O)[O-] [1-ethyl-3-methylimidazolium methylsulfate] | surface tension liquid-gas | 38.2
CCCCCCn1cc[n+](C)c1.F[P-](F)(F)(F)(F)F [1-hexyl-3-methylimidazolium hexafluorophosphate] | surface tension liquid-gas | 35.4
COS(=O)(=O)[O-].Cn1cc[n+](C)c1 [1,3-dimethylimidazolium methylsulfate] | surface tension liquid-gas | 55.1
CCCCn1cc[n+](C)c1.O=S(=O)([O-])O [1-butyl-3-methylimidazolium hydrogen sulfate] | surface tension liquid-gas | 41.3
CCCCCCCC[n+]1ccn(C)c1.F[P-](F)(F)(F)(F)F [1-octyl-3-methylimidazolium hexafluorophosphate] | surface tension liquid-gas | 34.6

---

reported conditions: 323.15 K; 101.33 kPa; Liquid; Pulse-echo method

molecule | speed of sound / m/s
COS(=O)(=O)[O-].Cn1cc[n+](C)c1 [1,3-dimethylimidazolium methylsulfate] | 1751.9
CCCCCCCC[n+]1ccn(C)c1.[Cl-] [1-methyl-3-octylimidazolium chloride] | 1577.4
CCCCn1cc[n+](C)c1.O=S(=O)([O-])O [1-butyl-3-methylimidazolium hydrogen sulfate] | 1628.5
CCn1cc[n+](C)c1.COS(=O)(=O)[O-] [1-ethyl-3-methylimidazolium methylsulfate] | 1704
CCCCn1cc[n+](C)c1.F[P-](F)(F)(F)(F)F [1-butyl-3-methylimidazolium hexafluorophosphate] | 1385.8
CCCCCCCC[n+]1ccn(C)c1.F[P-](F)(F)(F)(F)F [1-octyl-3-methylimidazolium hexafluorophosphate] | 1338.9
CC(C)C[P+](C)(CC(C)C)CC(C)C.Cc1ccc(S(=O)(=O)[O-])cc1 [triisobutylmethylphosphonium p-toluenesulfonate] | 1535.7
CCCC[n+]1ccc(C)cc1.F[B-](F)(F)F [1-butyl-4-methylpyridinium tetrafluoroborate] | 1541.2
CCCCCCn1cc[n+](C)c1.F[P-](F)(F)(F)(F)F [1-hexyl-3-methylimidazolium hexafluorophosphate] | 1363.4

---

protocol description: refractive index (Na D-line) (dimensionless)
reported conditions: 303.15 K; 101.33 kPa; Liquid; Standard Abbe refractometry
Measured refractive index, listed per entry for reference.

molecule | refractive index
CC(C)C[P+](C)(CC(C)C)CC(C)C.Cc1ccc(S(=O)(=O)[O-])cc1 [triisobutylmethylphosphonium p-toluenesulfonate] | 1.5181
CCCCCCn1cc[n+](C)c1.F[P-](F)(F)(F)(F)F [1-hexyl-3-methylimidazolium hexafluorophosphate] | 1.4161
CCCC[n+]1ccc(C)cc1.F[B-](F)(F)F [1-butyl-4-methylpyridinium tetrafluoroborate] | 1.4502
CCCCCCCC[n+]1ccn(C)c1.[Cl-] [1-methyl-3-octylimidazolium chloride] | 1.5085
COS(=O)(=O)[O-].Cn1cc[n+](C)c1 [1,3-dimethylimidazolium methylsulfate] | 1.4811
CCn1cc[n+](C)c1.COS(=O)(=O)[O-] [1-ethyl-3-methylimidazolium methylsulfate] | 1.4739
CCCCn1cc[n+](C)c1.F[P-](F)(F)(F)(F)F [1-butyl-3-methylimidazolium hexafluorophosphate] | 1.4085
CCCCCCCC[n+]1ccn(C)c1.F[P-](F)(F)(F)(F)F [1-octyl-3-methylimidazolium hexafluorophosphate] | 1.4211
CCCCn1cc[n+](C)c1.O=S(=O)([O-])O [1-butyl-3-methylimidazolium hydrogen sulfate] | 1.5

---

reported conditions: 303.15 K; 101.33 kPa; Liquid; Pulse-echo method

compound | speed of sound, m/s
CCn1cc[n+](C)c1.COS(=O)(=O)[O-] [1-ethyl-3-methylimidazolium methylsulfate] | 1750.4
CCCC[n+]1ccc(C)cc1.F[B-](F)(F)F [1-butyl-4-methylpyridinium tetrafluoroborate] | 1589.7
CCCCn1cc[n+](C)c1.O=S(=O)([O-])O [1-butyl-3-methylimidazolium hydrogen sulfate] | 1676.7
CCCCCCCC[n+]1ccn(C)c1.[Cl-] [1-methyl-3-octylimidazolium chloride] | 1667.7
CCCCCCCC[n+]1ccn(C)c1.F[P-](F)(F)(F)(F)F [1-octyl-3-methylimidazolium hexafluorophosphate] | 1390.3
CCCCCCn1cc[n+](C)c1.F[P-](F)(F)(F)(F)F [1-hexyl-3-methylimidazolium hexafluorophosphate] | 1411.3
CCCCn1cc[n+](C)c1.F[P-](F)(F)(F)(F)F [1-butyl-3-methylimidazolium hexafluorophosphate] | 1431.6
CC(C)C[P+](C)(CC(C)C)CC(C)C.Cc1ccc(S(=O)(=O)[O-])cc1 [triisobutylmethylphosphonium p-toluenesulfonate] | 1610.6
COS(=O)(=O)[O-].Cn1cc[n+](C)c1 [1,3-dimethylimidazolium methylsulfate] | 1799.4

Cited source: the NIST ThermoML archive (doi:10.1021/je500093z)
